target: Human Cbl-b (residues 40-426) (Homo sapiens (Human)); experiment: Cbl-b SPR assay; format: binding; details: C-cbl SPR Kd vs Cbl-b SPR Kd
Sequence (Q13191 40-426): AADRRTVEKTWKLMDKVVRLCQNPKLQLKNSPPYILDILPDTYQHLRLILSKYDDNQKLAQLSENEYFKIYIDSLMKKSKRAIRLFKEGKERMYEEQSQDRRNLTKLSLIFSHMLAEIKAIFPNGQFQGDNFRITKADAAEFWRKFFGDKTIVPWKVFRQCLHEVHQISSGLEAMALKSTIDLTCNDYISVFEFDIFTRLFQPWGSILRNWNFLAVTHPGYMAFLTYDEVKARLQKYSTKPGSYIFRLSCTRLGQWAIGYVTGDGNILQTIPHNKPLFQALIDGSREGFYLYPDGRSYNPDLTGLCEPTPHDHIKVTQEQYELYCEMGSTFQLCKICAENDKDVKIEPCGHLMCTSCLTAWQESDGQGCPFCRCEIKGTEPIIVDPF
Experimental endpoint: Fold of selectivity (×)
Could you give me the number in ×? Just the number is fine.

Worked cases, Fold of selectivity given:
>  <Compound>
Cn1cnnc1[C@]1(c2cccc(N3Cc4c(cc(CNC5(C)CCC5)cc4C(F)(F)F)C3=O)c2)C[C@H](F)C1 [Compound 95]

>  <Unit label>
×

>  <Observed>
7.5

$$$$
>  <Compound>
C[C@@H](NC1(C)CCC1)c1cc(Cl)c2c(c1)C(=O)N(c1cccc([C@]3(c4nncn4C)C[C@H](F)C3)c1)C2 (single isomer, unassigned) [Compound 311]

>  <Unit label>
×

>  <Observed>
2.5

$$$$
>  <Compound>
Cn1cnnc1[C@@H](c1cc(Cl)cc(N2Cc3c(cc(CNC4(C)CCC4)cc3C(F)(F)F)C2=O)c1)C1COC1 (single isomer, unassigned) [Compound 408]

>  <Unit label>
×

>  <Observed>
1.8

$$$$
>  <Compound>
Cn1cnnc1[C@]1(c2cccc(N3Cc4c(cc(CNC5(C)CCC5)cc4C(F)(F)F)C3=O)c2)C[C@@]2(CCCO2)C1 [Compound 341]

>  <Unit label>
×

>  <Observed>
11

$$$$
>  <Compound>
Cn1cnnc1[C@]1(c2cccc(N3Cc4c(cc(CNC5(C)CCC5)cc4C(F)F)C3=O)c2)C[C@H](Cl)C1 [Compound 446]

>  <Unit label>
×

>  <Observed>
5.1

$$$$

[ask] Report Fold of selectivity on Human Cbl-b (residues 40-426) (Homo sapiens (Human)) for this entry: Cn1cnnc1[C@@H](c1cccc(N2Cc3c(cc(CNC4(C)CCC4)cc3C(F)(F)F)C2=O)c1)C1CC(OC(F)F)C1 (single isomer, unassigned) [Compound 387]
[reply] 9.5

[ask] Report Fold of selectivity on Human Cbl-b (residues 40-426) (Homo sapiens (Human)) for this entry: C=C1CC(c2cccc(N3Cc4c(cc(CNC5(C)CCC5)cc4C(F)(F)F)C3=O)c2)(c2nncn2C)C1 [Compound 18]
[reply] 3.7

[ask] Report Fold of selectivity on Human Cbl-b (residues 40-426) (Homo sapiens (Human)) for this entry: CO[C@H]1C[C@](c2cc(N[C@H](C)CC#N)cc(N3Cc4c(cc(CNC5(C)CCC5)cc4C(F)(F)F)C3=O)c2)(c2nncn2C)C1 (single isomer, unassigned) [Compound 221]
[reply] 5.8

[ask] Report Fold of selectivity on Human Cbl-b (residues 40-426) (Homo sapiens (Human)) for this entry: Cn1nnnc1[C@@H](c1cccc(N2Cc3c(cc(CNC4(C)CCC4)cc3C(F)(F)F)C2=O)c1)C1COC1 (single isomer, unassigned) [Compound 348]
[reply] 8.4

[ask] Report Fold of selectivity on Human Cbl-b (residues 40-426) (Homo sapiens (Human)) for this entry: Cn1cnnc1[C@]1(c2cc(OC3CCCC3)nc(N3Cc4c(cc(CNC5(C)CCC5)cc4C(F)(F)F)C3=O)c2)C[C@H](C)C1 [Compound 54]
[reply] 11

[ask] Report Fold of selectivity on Human Cbl-b (residues 40-426) (Homo sapiens (Human)) for this entry: Cn1cnnc1[C@]1(c2cc(NC3CCC3)nc(N3Cc4c(cc(CNC5(C)CCC5)cc4C(F)(F)F)C3=O)c2)C[C@H](C)C1 [Compound 67]
[reply] 1.5

[ask] Report Fold of selectivity on Human Cbl-b (residues 40-426) (Homo sapiens (Human)) for this entry: CO[C@H]1C[C@](c2cccc(N3Cc4c(cc(CN[C@H](C)C5CCC5)cc4C(F)(F)F)C3=O)c2)(c2nncn2C)C1 [Compound 467]
[reply] 7.6
